biological target: BgaD-D active site mutant E447R (Bacillus circulans ATCC 31382); experiment: bead assay, purified proteins, target given as BgaD-D/ER, titrated 0-1000 nM shown, 1:1 fit [panel a]
Reported property: Kd (nM)

{"columns": ["Binder", "Result units", "Kd"],
 "data": [
  ["Mb(BgaD_L19) (designed binder) VSSVPTKLEVVAATPTSLLISWDAFDGYWYDYVSYYRITYGETGGNSPVQEFTVPSSSSTATISGLKPGVDYTITVYAYSHSQQQYLSPISINYRT", "nM", 224]
]}

P = Mb(BgaD_L02) (designed binder) VSSVPTKLEVVAATPTSLLISWDANGWNYVKYYRITYGETGGNSPVQEFTVPGSSSTATISGLKPGVDYTITVYAYEYYSESSSSPISINYRT
Q = Mb(BgaD_L23) (designed binder) VSSVPTKLEVVAATPTSLLISWDAFDGYWYDYVSFYRITYGESGGNSPVQEFTVPSSSSTATISGLKPGVDYTITVYAYSHSQQQYLSPNSINYRT
R = Mb(BgaD_S09) (designed binder) VSSVPTKLEVVAATPTSLLISWDAPAVTVVYYVITYGETGGNSPVQEFTVPGSKSTATISGLKPGVDYTITVYAYSDQVEYYEYFYGSPISINYRT
S = Mb(BgaD_S10) (designed binder) VSSVPTKLEVVAATPTSLLISWDAPAVTVVFYLITYGETGASSWPGYQEFTVPGSKSTATISGLKPGVDYTITVYAQYPWDTGSPISINYRT
Put the entries in order of Kd, starting with the largest number. // list labels; follow requested order
Q, R, S, P
